# tested on: human androgen receptor (Homo sapiens, UniProt P10275)
# Construct: expressed in transfected cells; host or cells: HEK293
# Sequence (P10275 whole entry): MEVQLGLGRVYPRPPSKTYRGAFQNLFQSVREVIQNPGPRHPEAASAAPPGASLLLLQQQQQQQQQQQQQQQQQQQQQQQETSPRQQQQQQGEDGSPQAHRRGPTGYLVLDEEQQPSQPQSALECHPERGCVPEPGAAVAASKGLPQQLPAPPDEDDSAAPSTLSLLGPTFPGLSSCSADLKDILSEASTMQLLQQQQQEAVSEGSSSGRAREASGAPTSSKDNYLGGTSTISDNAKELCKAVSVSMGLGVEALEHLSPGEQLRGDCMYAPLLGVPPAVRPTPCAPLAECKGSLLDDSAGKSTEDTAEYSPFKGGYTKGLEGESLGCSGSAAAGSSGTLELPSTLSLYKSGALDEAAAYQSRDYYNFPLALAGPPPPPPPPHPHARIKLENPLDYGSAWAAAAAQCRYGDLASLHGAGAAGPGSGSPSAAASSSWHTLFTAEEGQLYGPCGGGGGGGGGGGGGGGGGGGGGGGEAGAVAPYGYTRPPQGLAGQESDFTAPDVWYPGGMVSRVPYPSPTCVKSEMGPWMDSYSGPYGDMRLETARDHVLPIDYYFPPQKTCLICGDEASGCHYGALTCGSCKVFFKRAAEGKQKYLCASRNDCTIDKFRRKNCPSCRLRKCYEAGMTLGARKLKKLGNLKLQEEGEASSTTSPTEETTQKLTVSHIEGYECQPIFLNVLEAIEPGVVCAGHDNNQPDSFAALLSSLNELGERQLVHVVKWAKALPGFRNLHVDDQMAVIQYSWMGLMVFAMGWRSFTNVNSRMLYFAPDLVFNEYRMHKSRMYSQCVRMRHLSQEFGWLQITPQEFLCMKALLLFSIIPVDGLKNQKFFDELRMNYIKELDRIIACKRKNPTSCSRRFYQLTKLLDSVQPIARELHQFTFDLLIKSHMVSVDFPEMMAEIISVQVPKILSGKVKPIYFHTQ
# assay summary: Reporter assay of an androgen receptor responsive sequence (luciferase, transiently transfected HEK293 cells)
# Assay type: cell-based
# measurement conditions: 24 hours incubation, relative to activity of 100 nM DHT, read-out: AR transcriptive activity (pEC50) (converted)
reported property: EC50 (nM)
Report only the number, with the unit nM understood.

COCCOc1ccc(CN(c2ccc(C#N)cc2)c2nc(C(=O)NS(C)(=O)=O)c(C)s2)cc1 = 1580

// query EC50 value for entry Cc1sc(N(CC[C@@H]2CCCC[C@@H]2O)c2ccc(C#N)cc2)nc1C(=O)NS(C)(=O)=O (racemic)
251

// query EC50 value for entry CCS(=O)(=O)NC(=O)c1nc(N(CCc2ccc(C#N)cc2)Cc2ccc(Cl)cc2)sc1C
251

// query EC50 value for entry COCCCS(=O)(=O)NC(=O)c1nc(N(Cc2ccc(C(F)(F)F)nc2)c2ccc(C#N)cc2)sc1C
631

// query EC50 value for entry Cc1sc(N(CCn2cc(Cl)cn2)Cc2ccccc2)nc1C(=O)NS(C)(=O)=O
631

// query EC50 value for entry COCCCS(=O)(=O)NC(=O)c1nc(N(Cc2nc(C3CC3)no2)c2ccc(C#N)cc2)sc1C
3980

// query EC50 value for entry COCCCS(=O)(=O)NC(=O)c1nc(N(Cc2ccc(F)cc2)c2ccc(C#N)cc2)sc1C
158

// query EC50 value for entry Cc1sc(N(CCc2ccc(OC(F)(F)F)cc2)Cc2ccc(Cl)cn2)nc1C(=O)NS(C)(=O)=O
1260

// query EC50 value for entry Cc1sc(N(Cc2ccc(SC(F)(F)F)cc2)c2ccc(C#N)cc2)nc1C(=O)NS(C)(=O)=O
158

// query EC50 value for entry Cc1sc(N(Cc2ccc3c(c2)C(O)CC3)c2ccc(C#N)cc2)nc1C(=O)NS(C)(=O)=O (stereo not shown)
126

// query EC50 value for entry Cc1sc(N(Cc2ccc([S+]([O-])C(F)(F)F)cc2)c2ccc(C#N)cc2)nc1C(=O)NS(C)(=O)=O (stereo not shown)
631

----------
# tested on: androgen receptor (AR-LBD) (Rattus norvegicus)
# Construct: 5 μL of 2×AR-LBD/Fluoromone AL Red Complex contained in the kit; purchased Invitrogen
# Sequence (P15207 651-882 limits assumed): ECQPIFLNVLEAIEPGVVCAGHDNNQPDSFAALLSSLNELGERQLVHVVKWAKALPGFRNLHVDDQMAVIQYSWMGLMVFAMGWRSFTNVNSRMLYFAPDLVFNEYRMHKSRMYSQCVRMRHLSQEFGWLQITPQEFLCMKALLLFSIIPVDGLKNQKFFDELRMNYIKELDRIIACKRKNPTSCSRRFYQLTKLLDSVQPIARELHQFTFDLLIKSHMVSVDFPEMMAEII
# assay summary: Evaluation of androgen receptor affinity (PolarScreen Androgen Receptor Competitor Assay Kit, Red; fluorescence polarization)
# measurement conditions: 22° C. for 5 hours, relative to binding rate of 1 μM DHT, read-out: AR affinity (pEC50) (converted)
Under this convention, MET denotes EC50 strictly below 50 nM and NOT MET denotes EC50 at or above 50 nM.

Cc1sc(N(CCc2ccc(C#N)cc2)Cc2ccc(OC(F)(F)F)cc2)nc1C(=O)NS(C)(=O)=O [Compound 323] = MET
Cc1sc(N(C[C@H]2CC[C@H](O)CC2)c2ccc(C#N)cc2)nc1C(=O)NS(C)(=O)=O [Compound 354] = NOT MET
Cc1sc(N(Cc2ccccc2)c2ccc(C(F)(F)F)nn2)nc1C(=O)NS(C)(=O)=O [Example 237] = NOT MET
Cc1sc(N(CCCCOc2ccccc2)c2ccc(C#N)cc2)nc1C(=O)NS(C)(=O)=O [Compound 369] = NOT MET
Cc1nc(CN(CCc2ccc(OC(F)F)cc2)c2nc(C(=O)NS(C)(=O)=O)c(C)s2)cs1 [Compound 513] = NOT MET

# check: EC50 < 50 nM for Cc1sc(N(Cc2ccc(OCC(F)(F)F)cc2)c2ccc(C#N)cc2)nc1C(=O)NS(C)(=O)=O [Compound 580]
MET

# check: EC50 < 50 nM for Cc1sc(N(CCc2ccc(Cl)cc2)Cc2cccc(Cl)c2)nc1C(=O)NS(C)(=O)=O [Compound 144]
MET
